Test system: Molt-4 cells
Measurement description: Effects on tumor cell cycle, PI staining and flow cytometry
Type: cell-based, human
Condition details: dose 3 μM, 48 h
Property name: Polyploid (%) DNA > 4N
Express the result in % but write the number alone.

Example entries begin here.
COc1ccc2c(Oc3ccc4c(C(=O)Nc5ccc(F)c(F)c5N)cccc4c3)ccnc2c1 [Compound I-9] = 56.10
COc1ccc2c(Oc3ccc4c(C(=O)Nc5ccccc5N)cccc4c3)ccnc2c1 [Control molecule 01, chiauranib, reference compound] = 6.40
COc1cc(F)c2c(Oc3ccc4c(C(=O)Nc5ccc(F)c(F)c5N)cccc4c3)ccnc2c1 [Compound I-37] = 53.75

Q: Name the recorded Polyploid (%) DNA > 4N for COc1ccc2c(Oc3ccc4c(C(=O)Nc5ccc(F)cc5N)cccc4c3)ccnc2c1 [Control molecule 02, reference compound] .
Result: 55.70

* * *

System: Molt-4 cells
Measurement description: Effects on tumor cell cycle, PI staining and flow cytometry
Assay type: cell-based, human
Condition details: dose 3 μM, 48 h
List of Apoptosis (%) DNA < 2N values.
Express the result in % but write the number alone.

Example entries begin here.
COc1ccc2c(Oc3ccc4c(C(=O)Nc5ccccc5N)cccc4c3)ccnc2c1 [Control molecule 01, chiauranib, reference compound] = 16.40
COc1ccc2c(Oc3ccc4c(C(=O)Nc5ccc(F)c(F)c5N)cccc4c3)ccnc2c1 [Compound I-9] = 21.35
COc1cc(F)c2c(Oc3ccc4c(C(=O)Nc5ccc(F)c(F)c5N)cccc4c3)ccnc2c1 [Compound I-37] = 23.75

Q: Name the recorded Apoptosis (%) DNA < 2N for COc1ccc2c(Oc3ccc4c(C(=O)Nc5ccc(F)cc5N)cccc4c3)ccnc2c1 [Control molecule 02, reference compound] .
Result: 23.80

* * *

Tested target: Aurora B kinase (Homo sapiens, UniProt Q96GD4)
Sequence (Q96GD4 whole entry): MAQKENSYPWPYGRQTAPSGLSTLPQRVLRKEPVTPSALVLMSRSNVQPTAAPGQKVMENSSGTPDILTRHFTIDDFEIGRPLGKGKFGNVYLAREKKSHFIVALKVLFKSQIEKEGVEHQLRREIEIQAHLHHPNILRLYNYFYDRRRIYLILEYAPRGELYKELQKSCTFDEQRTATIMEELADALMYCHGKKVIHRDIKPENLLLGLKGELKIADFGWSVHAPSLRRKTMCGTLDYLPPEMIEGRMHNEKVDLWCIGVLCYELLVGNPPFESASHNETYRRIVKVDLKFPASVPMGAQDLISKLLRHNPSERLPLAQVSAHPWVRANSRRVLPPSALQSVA
Sequence (Q9NQS7 803-916 partner limits assumed): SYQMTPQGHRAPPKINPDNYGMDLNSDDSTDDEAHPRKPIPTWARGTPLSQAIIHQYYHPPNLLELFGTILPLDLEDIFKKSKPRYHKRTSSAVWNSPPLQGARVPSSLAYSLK
Property name: pIC50
On this scale, pIC50 is minus log10 of a concentration expressed in M (mol/L).

Example entries begin here.
CCOc1ccc2c(Oc3ccc4c(C(=O)Nc5ccc(F)c(F)c5N)cccc4c3)ccnc2c1 = 8.50
COCCOc1ccc2c(Oc3ccc4c(C(=O)NC5CC6(CCC6)C5)cccc4c3)ccnc2c1 = 8.81
CCOc1cc(F)c2c(Oc3ccc4c(C(=O)Nc5ccc(F)c(F)c5N)cccc4c3)ccnc2c1 = 8.25

Please turn your attention to the following entry.
Q: // map CCOc1cc(F)c2c(Oc3ccc4c(C(=O)Nc5ccccc5N)cccc4c3)ccnc2c1 to recorded pIC50 (system: Aurora B kinase (Homo sapiens, UniProt Q96GD4))
Result: 8.40

* * *

Tested target: VEGFR2 (Homo sapiens, UniProt P35968)
Construct: purchased Carna 08-191
Sequence (P35968 790-1356 limits assumed): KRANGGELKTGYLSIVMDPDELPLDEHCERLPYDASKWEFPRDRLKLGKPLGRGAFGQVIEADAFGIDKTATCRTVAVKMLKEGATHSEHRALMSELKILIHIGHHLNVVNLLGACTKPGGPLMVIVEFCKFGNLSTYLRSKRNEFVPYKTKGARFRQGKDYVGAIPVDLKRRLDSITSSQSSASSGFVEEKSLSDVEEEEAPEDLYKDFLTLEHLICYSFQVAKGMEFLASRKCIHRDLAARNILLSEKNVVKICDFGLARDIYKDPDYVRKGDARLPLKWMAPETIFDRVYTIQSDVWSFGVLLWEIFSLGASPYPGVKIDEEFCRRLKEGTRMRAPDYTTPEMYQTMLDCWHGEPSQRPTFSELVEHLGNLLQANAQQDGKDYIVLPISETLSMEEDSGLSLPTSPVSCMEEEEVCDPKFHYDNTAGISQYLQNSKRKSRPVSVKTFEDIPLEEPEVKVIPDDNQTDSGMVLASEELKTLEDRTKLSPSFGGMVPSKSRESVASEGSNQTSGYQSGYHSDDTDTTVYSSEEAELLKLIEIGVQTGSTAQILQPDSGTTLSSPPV
Measurement description: HTRF KinEASE test against VEGFR2, reported as relative selectivity IC50-VEGFR2/IC50-Aurora B
Type: biochemical
Condition details: ratio of IC50 against VEGFR2 to IC50 against Aurora B
Property name: Selectivity for Aurora B IC50-VEGFR2/IC50-Aurora B
Provide a numeric answer; units are not to be included.

Example entries begin here.
CC(C)Oc1ccc2c(Oc3ccc4c(C(=O)Nc5ccccc5N)cccc4c3)ccnc2c1 = 0.17
CCOc1cc(F)c2c(Oc3ccc4c(C(=O)Nc5cccc(F)c5N)cccc4c3)ccnc2c1 = 9.75
CCCOc1ccc2c(Oc3ccc4c(C(=O)Nc5ccc(F)cc5N)cccc4c3)ccnc2c1 = 5.12
CCCCOc1ccc2c(Oc3ccc4c(C(=O)Nc5ccccc5N)cccc4c3)ccnc2c1 = 0.27
COCCOc1ccc2c(Oc3ccc4c(C(=O)NC5CC6(COC6)C5)cccc4c3)ccnc2c1 = 109.61
O=C(NC1CC(F)(F)C1)c1cccc2cc(Oc3ccnc4cc(OCCF)ccc34)ccc12 = 376.79
COc1cc(F)c2c(Oc3ccc4c(C(=O)Nc5ccc(F)c(F)c5N)cccc4c3)ccnc2c1 = 14.19
COCCOc1ccc2c(Oc3ccc4c(C(=O)NC5CC6(CCC6)C5)cccc4c3)ccnc2c1 = 38.05

Q: Name the recorded Selectivity for Aurora B IC50-VEGFR2/IC50-Aurora B for Nc1c(NC(=O)c2cccc3cc(Oc4ccnc5cc(OCCF)ccc45)ccc23)ccc(F)c1F .
Result: 8.07

* * *

Tested on: Molt-4 cells
Measurement description: Effects on tumor cell cycle, PI staining and flow cytometry
Assay type: cell-based, human
Condition details: dose 3 μM, 48 h
List of Tetraploid (%) DNA = 4N values.
Dear colleague, please send the value followed by its unit.

COc1cc(F)c2c(Oc3ccc4c(C(=O)Nc5ccc(F)c(F)c5N)cccc4c3)ccnc2c1 = 5.75 ± 3.15%
COc1ccc2c(Oc3ccc4c(C(=O)Nc5ccc(F)cc5N)cccc4c3)ccnc2c1 [Control molecule 02, reference compound] = 8.40 ± 4.96%
COc1ccc2c(Oc3ccc4c(C(=O)Nc5ccccc5N)cccc4c3)ccnc2c1 [Control molecule 01, chiauranib, reference compound] = 16.25 ± 8.13%

Please turn your attention to the following entry.
Q: Name the recorded Tetraploid (%) DNA = 4N for COc1ccc2c(Oc3ccc4c(C(=O)Nc5ccc(F)c(F)c5N)cccc4c3)ccnc2c1 .
Result: 5.39 ± 6.10%

* * *

Please consider the recorded IC50 for Aurora B kinase (Homo sapiens) in what follows.
Express the result in nM but write the number alone.

Example entries begin here.
Nc1c(F)cccc1NC(=O)c1cccc2cc(Oc3ccnc4cc(OCCOC(F)F)cc(F)c34)ccc12 = 4.12
CCCCOc1ccc2c(Oc3ccc4c(C(=O)Nc5ccc(C)cc5N)cccc4c3)ccnc2c1 = 53.1
COc1ccc2c(Oc3ccc4c(C(=O)Nc5ccc(F)cc5N)cccc4c3)ccnc2c1 [Control molecule 02, reference compound] = 2.08

Please turn your attention to the following entry.
Q: Name the recorded IC50 for COc1ccc2c(Oc3ccc4c(C(=O)Nc5ccccc5N)cccc4c3)ccnc2c1 [Control molecule 01, chiauranib, reference compound] .
Result: 10.8

* * *

Tested target: VEGFR2 (Homo sapiens)
Construct: purchased Carna 08-191
Measurement description: HTRF KinEASE test against VEGFR2, reported as relative selectivity IC50-VEGFR2/IC50-Aurora B
Type: biochemical
Condition details: ratio of IC50 against VEGFR2 to IC50 against Aurora B
List of Selectivity for Aurora B IC50-VEGFR2/IC50-Aurora B values.
Provide a numeric answer; units are not to be included.

CCOc1ccc2c(Oc3ccc4c(C(=O)Nc5cc(F)c(F)c(F)c5N)cccc4c3)ccnc2c1 = 12.14
Nc1c(F)cccc1NC(=O)c1cccc2cc(Oc3ccnc4cc(OCCOC(F)F)cc(F)c34)ccc12 = 9.68
COCCOc1ccc2c(Oc3ccc4c(C(=O)NC5CC(F)C5)cccc4c3)ccnc2c1 (centres unmarked) = 10.23
COc1ccc2c(Oc3ccc4c(C(=O)Nc5cc(F)c(F)c(F)c5N)cccc4c3)ccnc2c1 = 13.34

Please turn your attention to the following entry.
Q: Name the recorded Selectivity for Aurora B IC50-VEGFR2/IC50-Aurora B for O=C(NC1CC(F)(F)C1)c1cccc2cc(Oc3ccnc4cc(OCC(F)F)ccc34)ccc12 .
Result: 127.51

* * *

Measurement description: Brain permeation assay in mice
Assay type: in vivo
Condition details: B/C, mouse, oral; female mice, 5 mg/kg intragastric, 4 h after administration; read-out: Brain permeation (ratio of compound concentration in brain tissue to concentration in plasma)
List of Kp at 4 h values.

COc1ccc2c(Oc3ccc4c(C(=O)Nc5ccccc5N)cccc4c3)ccnc2c1 [Control molecule 01, chiauranib, reference compound] = 0.28

Q: Name the recorded Kp at 4 h for COc1ccc2c(Oc3ccc4c(C(=O)Nc5ccc(F)cc5N)cccc4c3)ccnc2c1 [Control molecule 02, reference compound] .
Result: 0.27

* * *

Tested target: VEGFR2 (Homo sapiens, UniProt P35968)
Construct: purchased Carna 08-191
Measurement description: HTRF KinEASE test against VEGFR2, reported as relative selectivity IC50-VEGFR2/IC50-Aurora B
Type: biochemical
Condition details: ratio of IC50 against VEGFR2 to IC50 against Aurora B
One threshold, 9, splits the recorded Selectivity for Aurora B IC50-VEGFR2/IC50-Aurora B values: lower ones are yes (1), equal or higher ones are no (0).

Look over these answered cases.
COc1ccc2c(Oc3ccc4c(C(=O)Nc5ccccc5N)cccc4c3)ccnc2c1 [Control molecule 01, chiauranib, reference compound] = yes (1)
O=C(NC1CC(F)(F)C1)c1cccc2cc(Oc3ccnc4cc(OCCOC(F)F)ccc34)ccc12 = no (0)
CCCOc1ccc2c(Oc3ccc4c(C(=O)Nc5ccccc5N)cccc4c3)ccnc2c1 = yes (1)
COCCOc1ccc2c(Oc3ccc4c(C(=O)NC5CC(F)(F)C5)cccc4c3)ccnc2c1 = no (0)
CCOc1ccc2c(Oc3ccc4c(C(=O)Nc5ccc(F)c(F)c5N)cccc4c3)ccnc2c1 = no (0)

Q: Hi there! Is Selectivity for Aurora B IC50-VEGFR2/IC50-Aurora B for COc1ccc2c(Oc3ccc4c(C(=O)Nc5ccc(F)c(F)c5N)cccc4c3)ccnc2c1 below 9, do you know?
Result: no (0)

* * *

Please consider the recorded pIC50 for Aurora B kinase (Homo sapiens, UniProt Q96GD4) in what follows.
On this scale, pIC50 is minus log10 of a concentration expressed in M (mol/L).

Example entries begin here.
CCCOc1ccc2c(Oc3ccc4c(C(=O)Nc5ccc(F)cc5N)cccc4c3)ccnc2c1 = 7.72
CCOc1ccc2c(Oc3ccc4c(C(=O)Nc5cc(F)c(F)c(F)c5N)cccc4c3)ccnc2c1 = 8.17
COc1cc(F)c2c(Oc3ccc4c(C(=O)Nc5ccc(F)c(Cl)c5N)cccc4c3)ccnc2c1 = 8.53
COCCOc1ccc2c(Oc3ccc4c(C(=O)NC5CC6(COC6)C5)cccc4c3)ccnc2c1 = 8.77
CCCOc1ccc2c(Oc3ccc4c(C(=O)Nc5ccccc5N)cccc4c3)ccnc2c1 = 7.47

Q: Name the recorded pIC50 for COc1ccc2c(Oc3ccc4c(C(=O)Nc5cc(F)c(F)c(F)c5N)cccc4c3)ccnc2c1 .
Result: 8.45

Q: Then this compound: CN(C)CCOc1ccc2c(Oc3ccc4c(C(=O)NC5CC(F)(F)C5)cccc4c3)ccnc2c1
Result: 8.41

Q: Then this compound: COc1cc(F)c2c(Oc3ccc4c(C(=O)Nc5ccc(F)c(F)c5N)cccc4c3)ccnc2c1
Result: 8.58
